experiment-summary: Half life in dog (dosed at 0.5 mpk iv and 2.0 mpk orally)
Assay type: ADME, organism-based, Canis lupus familiaris
protocol-conditions: in vivo

{"columns": ["molecular-string", "half-life"],
 "data": [
  ["CCn1nc(Cc2ccccc2)cc1C1CCN(C[C@H]2CN([C@@H](C(=O)O)C(C)(C)C)C[C@@H]2c2cccc(F)c2)CC1", "0.64 h"],
  ["CCn1nc(Cc2ccccc2)cc1C1CCN(C[C@H]2CN([C@@H](C(=O)O)C(C)C)C[C@@H]2c2cccc(F)c2)CC1", "3.4 h"]
]}

====

experiment-summary: Oral bioavailability in dog (dose 0.5 mg/kg i.v. and 2.0 mg/kg p.o.)
Format: ADME, organism-based, Canis lupus familiaris
protocol-conditions: in vivo

{"columns": ["molecular-string", "display-unit", "bioavailability"],
 "data": [
  ["CCn1nc(Cc2ccccc2)cc1C1CCN(C[C@H]2CN([C@@H](C(=O)O)C(C)C)C[C@@H]2c2cccc(F)c2)CC1", "%", 20],
  ["CCn1nc(Cc2ccccc2)cc1C1CCN(C[C@H]2CN([C@@H](C(=O)O)C(C)(C)C)C[C@@H]2c2cccc(F)c2)CC1", "%", 44]
]}
